TARGET_OR_TEST_SYSTEM: Sterol O-acyltransferase 2 (Mus musculus)
Sequence (whole entry): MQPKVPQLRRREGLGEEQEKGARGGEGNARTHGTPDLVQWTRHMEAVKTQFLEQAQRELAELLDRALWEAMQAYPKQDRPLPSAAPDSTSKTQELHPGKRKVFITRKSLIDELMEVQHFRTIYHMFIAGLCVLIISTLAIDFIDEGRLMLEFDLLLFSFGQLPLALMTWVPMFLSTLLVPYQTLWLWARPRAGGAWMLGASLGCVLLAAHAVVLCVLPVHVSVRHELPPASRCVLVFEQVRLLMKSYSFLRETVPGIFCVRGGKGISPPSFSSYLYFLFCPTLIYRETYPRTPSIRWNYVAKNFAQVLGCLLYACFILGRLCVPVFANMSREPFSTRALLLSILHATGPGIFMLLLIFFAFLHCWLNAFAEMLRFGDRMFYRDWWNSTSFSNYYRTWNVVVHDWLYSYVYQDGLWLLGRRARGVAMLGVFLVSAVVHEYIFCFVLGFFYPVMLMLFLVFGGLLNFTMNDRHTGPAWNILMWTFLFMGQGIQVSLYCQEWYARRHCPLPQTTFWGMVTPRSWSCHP
ASSAY: Potency index, ratio of PRD-043 IC50 to test compound IC50 for inhibition ACAT2 in mouse hepatic microsome membranes using [1-14C]oleoyl coenzyme A as substrate incubated for 5 mins
Assay type: microsomes
Item-by-item account of Ratio IC50

COc1ccccc1[C@@H]1OC[C@@]2(C)[C@@H]3C[C@H](OC(=O)c4ccc(F)cc4)[C@@]4(C)Oc5cc(-c6cccnc6)oc(=O)c5[C@H](O)[C@@H]4[C@@]3(C)CC[C@@H]2O1 yielded Ratio IC50 of 10 to 20

Continuing:
Short answer for Cc1cccc([C@@H]2OC[C@@]3(C)[C@@H]4C[C@H](OC(=O)c5ccc(F)cc5)[C@@]5(C)Oc6cc(-c7cccnc7)oc(=O)c6[C@H](O)[C@@H]5[C@@]4(C)CC[C@@H]3O2)c1 : Ratio IC50 was 10 to 20

Reported Ratio IC50 of Cc1ccccc1[C@@H]1OC[C@@]2(C)[C@@H]3C[C@H](OC(=O)c4ccc(C#N)cc4)[C@@]4(C)Oc5cc(-c6cccnc6)oc(=O)c5[C@H](O)[C@@H]4[C@@]3(C)CC[C@@H]2O1 : 10 to 20

// Ratio IC50 value for COc1cccc(C(=O)O[C@H]2C[C@H]3[C@](C)(COC(C)=O)[C@@H](OC(C)=O)CC[C@]3(C)[C@H]3[C@@H](O)c4c(cc(-c5cccnc5)oc4=O)O[C@]23C)c1 : 1

Sure, the documented Ratio IC50 for COc1ccc(C(OC)O[C@H]2C[C@H]3[C@]4(C)CO[C@@H](c5ccccc5)O[C@H]4CC[C@]3(C)[C@H]3[C@@H](O)c4c(cc(-c5cccnc5)oc4=O)O[C@]23C)cc1 (some centres undefined) is 10 to 20

Sure, the documented Ratio IC50 for CC(C)C(=O)OC[C@@]1(C)[C@@H]2C[C@H](OC(=O)c3ccc([N+](=O)[O-])cc3)[C@@]3(C)Oc4cc(-c5cccnc5)oc(=O)c4[C@H](O)[C@@H]3[C@@]2(C)CC[C@@H]1OC(=O)C(C)C is 10 to 20

# Ratio IC50 (molecule: CN(C)c1ccc([C@@H]2OC[C@@]3(C)[C@@H]4C[C@H](OC(=O)c5ccc(C#N)cc5)[C@@]5(C)Oc6cc(-c7cccnc7)oc(=O)c6[C@H](O)[C@@H]5[C@@]4(C)CC[C@@H]3O2)cc1 ) is < 20

GET /value?item= C[C@@]12CO[C@@H](c3ccccc3)O[C@H]1CC[C@@]1(C)[C@H]2C[C@H](OC(=O)c2ccccc2)[C@@]2(C)Oc3cc(-c4cccnc4)oc(=O)c3[C@H](O)[C@H]12 &field=Ratio IC50 returns 10 to 20

Recorded result, CC(=O)OC[C@@]1(C)[C@@H]2C[C@H](OC(=O)c3ccc(C#N)cc3)[C@@]3(C)Oc4cc(-c5cccnc5)oc(=O)c4[C@H](O)[C@@H]3[C@@]2(C)CC[C@@H]1OC(=O)c1ccccc1 , Ratio IC50: 10 to 20

Data provenance: ChEMBL document CHEMBL4418261
